- Experimental Target: FLuc-C-HiBiT (firefly luciferase) (Photinus pyralis, UniProt P08659, form not given/L550V)
- Sequence (P08659 2-550 L550V, form open): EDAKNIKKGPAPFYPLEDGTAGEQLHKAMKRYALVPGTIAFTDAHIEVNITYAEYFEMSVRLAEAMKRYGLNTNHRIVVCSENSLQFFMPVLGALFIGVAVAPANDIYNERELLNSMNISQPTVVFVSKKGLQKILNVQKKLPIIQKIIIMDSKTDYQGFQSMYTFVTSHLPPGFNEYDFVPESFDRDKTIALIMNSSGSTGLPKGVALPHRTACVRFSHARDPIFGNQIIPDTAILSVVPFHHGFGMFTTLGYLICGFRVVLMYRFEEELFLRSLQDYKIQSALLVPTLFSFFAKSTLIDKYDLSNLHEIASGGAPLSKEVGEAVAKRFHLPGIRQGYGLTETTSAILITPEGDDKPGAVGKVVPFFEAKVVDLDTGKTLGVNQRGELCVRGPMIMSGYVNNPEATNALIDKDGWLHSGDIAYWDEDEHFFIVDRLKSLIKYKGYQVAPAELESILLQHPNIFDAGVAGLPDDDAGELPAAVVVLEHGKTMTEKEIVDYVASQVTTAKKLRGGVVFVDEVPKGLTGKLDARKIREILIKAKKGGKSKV
- Protocol: SDR assay, FLuc-C-HiBiT
- Conditions Used: 10 nM FLuc-C-HiBiT; normalized activity; Log [Compound], M -8.30
Recorded measurements of SDR No ATP, one per entry
Observation Type: SDR No ATP

{"Compound": "CC(CNC(=O)C1CCN(C(=O)c2ncn3c2COC(c2ccccc2)C3)CC1)c1ccccc1 (stereo not drawn)", "Experimental Target": "FLuc-C-HiBiT (firefly luciferase) (Photinus pyralis, UniProt P08659, form not given/L550V)", "Measurement": 10.9}
{"Compound": "Cc1ccc(-n2ncc3c(N4CCCCCC4)ncnc32)cc1", "Experimental Target": "FLuc-C-HiBiT (firefly luciferase) (Photinus pyralis, UniProt P08659, form not given/L550V)", "Measurement": 14.7}
{"Compound": "Fc1ccc(-c2cn3cc(Cc4ccccc4)sc3n2)cc1", "Experimental Target": "FLuc-C-HiBiT (firefly luciferase) (Photinus pyralis, UniProt P08659, form not given/L550V)", "Measurement": 14.6}

====

- Experimental Target: ABL1-N-HiBiT kinase domain (Homo sapiens)
- Sequence (P00519 233-500): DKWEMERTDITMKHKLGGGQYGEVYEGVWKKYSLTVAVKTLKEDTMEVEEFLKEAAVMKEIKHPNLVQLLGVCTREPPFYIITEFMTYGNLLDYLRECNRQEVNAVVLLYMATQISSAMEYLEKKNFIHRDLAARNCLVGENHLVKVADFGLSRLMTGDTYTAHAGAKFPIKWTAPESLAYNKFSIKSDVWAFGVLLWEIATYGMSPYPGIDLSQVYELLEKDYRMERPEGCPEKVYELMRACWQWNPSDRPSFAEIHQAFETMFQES
- Protocol: ABL1 peptide phosphorylation, Kinase-Glo Plus (KGP) assay, ABL1-N-HiBiT
- Format: biochemical
- Parameters: containing amino acid residues Asp233-Ser500; His10 (N); made in house; host or cells: E. coli BL21(DE3)
- Conditions Used: ABL1-N-HiBiT qHTS; average; unit inferred; read-out: ABL1 KGP Ave IC50
Counter-ions that a name gives are not always drawn.
Observation Type: IC50 (µM)

{"Compound": "CCOc1ccn(-c2ccc(F)cc2)c(=O)c1C(=O)Nc1ccc(Oc2ccnc(N)c2Cl)c(F)c1 [BMS-777607]", "Observation Type": "IC50", "Measurement": 15.7}
{"Compound": "COc1cc(N2CCOCC2)ccc1Nc1ncc(Cl)c(Nc2ccccc2NS(C)(=O)=O)n1 [CZC 54252 HCl]", "Observation Type": "IC50", "Measurement": 10.1}
{"Compound": "C#Cc1cccc(Nc2ncnc3cc4c(cc23)OCCOCCOCCO4)c1 [Icotinib HCl]", "Observation Type": "IC50", "Measurement": 15.4}
{"Compound": "c1ccc(-c2oc3ncnc(NC[C@@H]4CCCO4)c3c2-c2ccccc2)cc1 [AIM-100]", "Observation Type": "IC50", "Measurement": 15.2}

====

Listed here: items and their measured SDR+ATP.
- Experimental Target: FLuc-C-NLuc (firefly luciferase) (Photinus pyralis, UniProt P08659, form not given/L550V)
- Protocol: SDR assay, FLuc-C-NLuc
- Conditions Used: Log[Compound], M -7.35; 10 mM ATP

{"Compound": "CC(CNC(=O)C1CCN(C(=O)c2ncn3c2COC(c2ccccc2)C3)CC1)c1ccccc1 (centres unmarked)", "SDR+ATP": 7.50}
{"Compound": "COc1ccc(NC(=O)C2CCN(C(=O)c3ncn4c3COC(c3ccccc3)C4)CC2)cc1Cl (centres unmarked)", "SDR+ATP": 11.38}
{"Compound": "CC1CCC(NC(=O)C2CCN(C(=O)c3ncn4c3COC(c3ccc(Cl)cc3)C4)CC2)CC1 (centres unmarked)", "SDR+ATP": 0.68}
{"Compound": "CC(NC(=O)C1CCN(C(=O)c2ncn3c2COC(c2ccc(F)cc2)C3)CC1)c1ccc(F)cc1 (centres unmarked)", "SDR+ATP": 2.57}
{"Compound": "O=C(Nc1cccc(F)c1)C1CCN(C(=O)c2ncn3c2COC(c2ccccc2)C3)CC1 (centres unmarked)", "SDR+ATP": 11.29}
